# System: BT-549
# test-summary: Cytotoxicity against human BT549 cells at 100 ug/ml […] by MTT assay
# Format: cell-based
property-label: Activity (%)

>  <compound>
Cc1cc(=O)[nH]c2cc(N3C(=O)CSC3c3ccccc3O)ccc12 (stereo not given)

>  <units-symbol>
%

>  <reading>
44.328

$$$$
>  <compound>
Cc1cc(=O)[nH]c2cc(N3C(=O)CSC3c3cccc(Br)c3)ccc12 (stereo not given)

>  <units-symbol>
%

>  <reading>
40.062

$$$$
>  <compound>
Cc1cc(=O)[nH]c2cc(N3C(=O)CSC3c3cccc(F)c3)ccc12 (stereo not given)

>  <units-symbol>
%

>  <reading>
50.052

$$$$
>  <compound>
COc1ccc(C2SCC(=O)N2c2ccc3c(C)cc(=O)[nH]c3c2)cc1OC (stereo not given)

>  <units-symbol>
%

>  <reading>
31.737

$$$$
>  <compound>
Cc1cc(=O)[nH]c2cc(N3C(=O)CSC3c3cccnc3)ccc12 (stereo not given)

>  <units-symbol>
%

>  <reading>
29.032

$$$$

====

# Test system: BT-549
# test-summary: Cytotoxicity against human BT549 cells at 100 ug/ml […] by MTT assay
# Format: cell-based
property-label: Activity (%)

>  <compound>
Cc1cc(=O)[nH]c2cc(N3C(=O)CSC3c3ccco3)ccc12 (stereo not given)

>  <units-symbol>
%

>  <reading>
49.658

$$$$
>  <compound>
Cc1cc(=O)[nH]c2cc(N3C(=O)CSC3c3ccccc3F)ccc12 (stereo not given)

>  <units-symbol>
%

>  <reading>
40.062

$$$$
>  <compound>
Cc1cc(=O)[nH]c2cc(N3C(=O)CSC3/C=C/c3ccccc3)ccc12 (stereo not given)

>  <units-symbol>
%

>  <reading>
38.837

$$$$
>  <compound>
Cc1cc(=O)[nH]c2cc(N3C(=O)CSC3c3ccccn3)ccc12 (stereo not given)

>  <units-symbol>
%

>  <reading>
18.028

$$$$
>  <compound>
Cc1ccc(C2SCC(=O)N2c2ccc3c(C)cc(=O)[nH]c3c2)s1 (stereo not given)

>  <units-symbol>
%

>  <reading>
22.023

$$$$
>  <compound>
Cc1cc(=O)[nH]c2cc(N3C(=O)CSC3c3cccc(O)c3)ccc12 (stereo not given)

>  <units-symbol>
%

>  <reading>
18.522

$$$$
>  <compound>
COc1cc(C2SCC(=O)N2c2ccc3c(C)cc(=O)[nH]c3c2)ccc1O (stereo not given)

>  <units-symbol>
%

>  <reading>
54.11

$$$$
>  <compound>
Cc1cc(=O)[nH]c2cc(N3C(=O)CSC3c3ccc(O)cc3)ccc12 (stereo not given)

>  <units-symbol>
%

>  <reading>
42.143

$$$$
>  <compound>
Cc1cc(=O)[nH]c2cc(N3C(=O)CSC3c3ccccc3[N+](=O)[O-])ccc12 (stereo not given)

>  <units-symbol>
%

>  <reading>
44.953

$$$$
>  <compound>
Cc1cc(=O)[nH]c2cc(N3C(=O)CSC3c3ccccc3Br)ccc12 (stereo not given)

>  <units-symbol>
%

>  <reading>
38.709

$$$$

====

# System: HeLa
# test-summary: Cytotoxicity against human HeLa cells at 100 ug/ml […] by MTT assay
# Type: cell-based

>  <compound>
Cc1cc(=O)[nH]c2cc(N3C(=O)CSC3c3ccc(O)cc3)ccc12 (stereo unspecified)

>  <Activity (%)>
68.91

$$$$
>  <compound>
Cc1cc(=O)[nH]c2cc(N3C(=O)CSC3N3CCCCC3)ccc12 (stereo unspecified)

>  <Activity (%)>
29.394

$$$$
>  <compound>
Cc1cc(=O)[nH]c2cc(N3C(=O)CSC3c3ccccc3)ccc12 (stereo unspecified)

>  <Activity (%)>
74.85

$$$$
>  <compound>
Cc1cc(=O)[nH]c2cc(N3C(=O)CSC3c3ccc(Br)o3)ccc12 (stereo unspecified)

>  <Activity (%)>
31.332

$$$$
>  <compound>
COc1ccc(C2SCC(=O)N2c2ccc3c(C)cc(=O)[nH]c3c2)cc1 (stereo unspecified)

>  <Activity (%)>
47.326

$$$$
>  <compound>
Cc1cc(=O)[nH]c2cc(N3C(=O)CSC3c3ccc(F)cc3)ccc12 (stereo unspecified)

>  <Activity (%)>
14.231

$$$$
>  <compound>
Cc1cc(=O)[nH]c2cc(N3C(=O)CSC3c3cccs3)ccc12 (stereo unspecified)

>  <Activity (%)>
83.762

$$$$
>  <compound>
Cc1cc(=O)[nH]c2cc(N3C(=O)CSC3c3ccccc3F)ccc12 (stereo unspecified)

>  <Activity (%)>
59.6

$$$$
>  <compound>
COc1ccc(C2SCC(=O)N2c2ccc3c(C)cc(=O)[nH]c3c2)cc1OC (stereo unspecified)

>  <Activity (%)>
30.492

$$$$
>  <compound>
Cc1cc(=O)[nH]c2cc(N3C(=O)CSC3c3cccnc3)ccc12 (stereo unspecified)

>  <Activity (%)>
34.851

$$$$
>  <compound>
Cc1cc(=O)[nH]c2cc(N3C(=O)CSC3c3ccccc3[N+](=O)[O-])ccc12 (stereo unspecified)

>  <Activity (%)>
28.316

$$$$
>  <compound>
Cc1cc(=O)[nH]c2cc(N3C(=O)CSC3c3ccc([N+](=O)[O-])cc3)ccc12 (stereo unspecified)

>  <Activity (%)>
54.851

$$$$
>  <compound>
COc1cc(C2SCC(=O)N2c2ccc3c(C)cc(=O)[nH]c3c2)ccc1O (stereo unspecified)

>  <Activity (%)>
41.028

$$$$
>  <compound>
Cc1ccc(C2SCC(=O)N2c2ccc3c(C)cc(=O)[nH]c3c2)o1 (stereo unspecified)

>  <Activity (%)>
27.453

$$$$
>  <compound>
Cc1cc(=O)[nH]c2cc(N3C(=O)CSC3c3ccc(Br)cc3)ccc12 (stereo unspecified)

>  <Activity (%)>
65.742

$$$$
>  <compound>
Cc1cc(=O)[nH]c2cc(N3C(=O)CSC3c3ccc(Br)s3)ccc12 (stereo unspecified)

>  <Activity (%)>
33.267

$$$$
>  <compound>
Cc1cc(=O)[nH]c2cc(N3C(=O)CSC3c3ccccc3Br)ccc12 (stereo unspecified)

>  <Activity (%)>
44.279

$$$$
>  <compound>
Cc1cc(=O)[nH]c2cc(N3C(=O)CSC3c3ccccc3Cl)ccc12 (stereo unspecified)

>  <Activity (%)>
52.496

$$$$
>  <compound>
Cc1cc(=O)[nH]c2cc(N3C(=O)CSC3N3CCOCC3)ccc12 (stereo unspecified)

>  <Activity (%)>
23.662

$$$$
>  <compound>
Cc1cc(=O)[nH]c2cc(N3C(=O)CSC3c3cccc(Br)c3)ccc12 (stereo unspecified)

>  <Activity (%)>
56.633

$$$$
>  <compound>
Cc1cc(=O)[nH]c2cc(N3C(=O)CSC3c3cccc(Cl)c3)ccc12 (stereo unspecified)

>  <Activity (%)>
44.158

$$$$
>  <compound>
Cc1cc(=O)[nH]c2cc(N3C(=O)CSC3c3cccc(O)c3)ccc12 (stereo unspecified)

>  <Activity (%)>
71.485

$$$$
>  <compound>
Cc1ccc(C2SCC(=O)N2c2ccc3c(C)cc(=O)[nH]c3c2)s1 (stereo unspecified)

>  <Activity (%)>
31.485

$$$$
>  <compound>
Cc1cc(=O)[nH]c2cc(N3C(=O)CSC3c3ccccc3O)ccc12 (stereo unspecified)

>  <Activity (%)>
43.168

$$$$
>  <compound>
Cc1cc(=O)[nH]c2cc(N3C(=O)CSC3c3ccco3)ccc12 (stereo unspecified)

>  <Activity (%)>
41.188

$$$$
>  <compound>
Cc1cc(=O)[nH]c2cc(N3C(=O)CSC3c3ccc(N(C)C)cc3)ccc12 (stereo unspecified)

>  <Activity (%)>
33.267

$$$$
>  <compound>
Cc1cc(=O)[nH]c2cc(N3C(=O)CSC3c3ccc(Cl)cc3)ccc12 (stereo unspecified)

>  <Activity (%)>
20.198

$$$$
>  <compound>
Cc1cc(=O)[nH]c2cc(N3C(=O)CSC3c3ccncc3)ccc12 (stereo unspecified)

>  <Activity (%)>
20.343

$$$$
>  <compound>
Cc1cc(=O)[nH]c2cc(N3C(=O)CSC3c3ccccn3)ccc12 (stereo unspecified)

>  <Activity (%)>
20

$$$$
>  <compound>
Cc1cc(=O)[nH]c2cc(N3C(=O)CSC3c3cccc(F)c3)ccc12 (stereo unspecified)

>  <Activity (%)>
52.738

$$$$
>  <compound>
Cc1cc(=O)[nH]c2cc(N3C(=O)CSC3/C=C/c3ccccc3)ccc12 (stereo unspecified)

>  <Activity (%)>
42.057

$$$$

====

# System: BT-549
# test-summary: Cytotoxicity against human BT549 cells at 100 ug/ml […] by MTT assay
# Format: cell-based
Decide using Activity alone. Strictly below 40%: yes. Equal to or above 40%: no.

>  <compound>
Cc1cc(=O)[nH]c2cc(N3C(=O)CSC3c3cccs3)ccc12 (stereo not given)

>  <assigned-class>
no

$$$$
>  <compound>
Cc1cc(=O)[nH]c2cc(N3C(=O)CSC3c3ccc(Br)cc3)ccc12 (stereo not given)

>  <assigned-class>
no

$$$$
>  <compound>
Cc1cc(=O)[nH]c2cc(N3C(=O)CSC3N3CCOCC3)ccc12 (stereo not given)

>  <assigned-class>
yes

$$$$
>  <compound>
Cc1cc(=O)[nH]c2cc(N3C(=O)CSC3c3ccc(Br)s3)ccc12 (stereo not given)

>  <assigned-class>
no

$$$$

Every entry's value here was drawn from ChEMBL document CHEMBL2375332.
